Target: T1, 6×His-tagged human LILRB2 ECD recombinant protein (human, UniProt Q8N423 22-458, limits assumed)
T1 construct: Bought protein; not shown: 6×His-tag
T1 sequence (Q8N423 22-458 limits assumed): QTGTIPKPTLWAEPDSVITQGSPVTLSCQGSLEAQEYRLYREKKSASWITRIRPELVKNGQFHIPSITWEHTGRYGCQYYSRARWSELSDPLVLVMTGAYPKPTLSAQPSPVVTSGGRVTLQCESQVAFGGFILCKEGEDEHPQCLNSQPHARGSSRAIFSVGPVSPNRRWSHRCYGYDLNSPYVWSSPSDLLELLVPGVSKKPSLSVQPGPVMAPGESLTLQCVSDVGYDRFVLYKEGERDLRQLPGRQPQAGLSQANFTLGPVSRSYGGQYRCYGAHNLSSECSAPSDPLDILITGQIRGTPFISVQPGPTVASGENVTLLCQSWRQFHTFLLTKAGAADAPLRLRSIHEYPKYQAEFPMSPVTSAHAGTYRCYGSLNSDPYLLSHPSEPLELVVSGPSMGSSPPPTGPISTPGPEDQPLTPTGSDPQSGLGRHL
Test: Octet, 1:1 model
# pKd values compiled below
Scale explanation: pKd corresponds to minus log10 of a concentration expressed in moles per litre.

hu043.05 (antibody, V domains shown, Humanized human IgG4 antibody with S228P in the constant region; also called hu043VH7 / hu043VL2) VH: QVQLVQSGAEVKKPGASVKVSCKASGYTFTSYWMYWVRQAPGQGLEWIGHINPSSGYTKYNQKFKDRVTMTADTSTSTVYMELSSLRSEDTAVYYCARDPNWDNYWGQGTTVTVSS VL: DIQMTQSPSSLSASVGDRVTITCKASQDVSIAVAWYQQKPGKAPKLLIYSASYRYTGVPSRFSGSGSGTDFTFTISSLQPEDIATYYCQQHYSTPYTFGGGTKLEIK    8.41
hu043.01 (antibody, V domains shown, Humanized human IgG4 antibody with S228P in the constant region; also called hu043VH6 / hu043VL4) VH: QVQLVQSGAEVKKPGASVKVSCKASGYTFTSYWMYWVRQAPGQGLEWIGHINPSSGYTKYNQKFKDRATLTADTSTSTAYMELSSLRSEDTAVYYCARDPNWDNYWGQGTTVTVSS VL: DIVMTQSPSSLSASVGDRVSITCKASQDVSIAVAWYQQKPGKAPKLLIYSASYRYTGVPDRFSGSGSGTDFTFTISSLQPEDIATYYCQQHYSTPYTFGGGTKLEIK    8.50

Query string: Given the binder hu043.06 (antibody, V domains shown, Humanized human IgG4 antibody with S228P in the constant region; also called hu043VH8 / hu043VL2) VH: QVQLQQSGAEVKKPGASVKLSCKASGYTFTSYWMYWVRQRPGQGLEWIGHINPSSGYTKYNQKFKDRATLTADTSTSTAYMELSSLRSEDTAVYYCARDPNWDNYWGQGTTVTVSS VL: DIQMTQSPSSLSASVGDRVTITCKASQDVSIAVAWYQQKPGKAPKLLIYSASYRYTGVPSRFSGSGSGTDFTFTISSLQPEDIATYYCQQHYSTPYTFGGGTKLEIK , write its reported pKd.
Result string: 8.44

Query string: Recall and state the measured pKd for hu043.04 (antibody, V domains shown, Humanized human IgG4 antibody with S228P in the constant region; also called hu043VH6 / hu043VL2) VH: QVQLVQSGAEVKKPGASVKVSCKASGYTFTSYWMYWVRQAPGQGLEWIGHINPSSGYTKYNQKFKDRATLTADTSTSTAYMELSSLRSEDTAVYYCARDPNWDNYWGQGTTVTVSS VL: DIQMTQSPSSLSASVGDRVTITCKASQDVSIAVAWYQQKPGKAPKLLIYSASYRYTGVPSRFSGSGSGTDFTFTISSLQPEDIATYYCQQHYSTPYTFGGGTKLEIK .
Result string: 8.42
